System: Oryctolagus cuniculus
Assay: Inhibition of thrombus formation in iv dosed rabbit arterio-venous shunt model
Assay type: functional, organism-based
Conditions: Oryctolagus cuniculus
quantity_kind: pIC50
Scale note: pIC50 = -log10(concentration in M).

Annotate the compound `COc1ccc(-n2nc(C(N)=O)c3ncn(-c4ccc(-c5ccccc5CN5CCCC5)cc4)c(=O)c32)cc1` with its measured pIC50.
5.92

###

Here, each record is paired with measured 2aPTT data.
Assay: Activity in human plasma by aPTT assay
Type: functional
Your answer should be a plain number; it is taken to be in µM.

Worked examples follow.
Annotate the compound `COc1ccc(-n2nc(C(N)=O)c3ncn(-c4ccc(-c5ccccc5S(N)(=O)=O)cc4)c(=O)c32)cc1` with its measured 2aPTT.
8.7

Annotate the compound `COc1ccc(-n2nc(C(N)=O)c3ncn(-c4ccc(-c5ccccc5CN5CC[C@@H](O)C5)cc4)c(=O)c32)cc1` with its measured 2aPTT.
5

Annotate the compound `COc1ccc(-n2nc(C(F)(F)F)c3c(C)nn(-c4ccc(-c5ccccc5CN5CCCC5)cc4)c(=O)c32)cc1` with its measured 2aPTT.
53

Attention now turns to another entry.
Annotate the compound `COc1ccc(-n2nc(C(F)(F)F)cc2C(=O)Nc2ccc(-c3ccccc3S(C)(=O)=O)cc2F)cc1` with its measured 2aPTT.
104

Sourced from ChEMBL document CHEMBL1138952
